- targetDesc: pseudokinase domain (JH2) of human TYK2 (Homo sapiens)
- Construct: The pseudokinase domain (JH2) of human JAK
- Sequence (P29597 589-875 limits assumed): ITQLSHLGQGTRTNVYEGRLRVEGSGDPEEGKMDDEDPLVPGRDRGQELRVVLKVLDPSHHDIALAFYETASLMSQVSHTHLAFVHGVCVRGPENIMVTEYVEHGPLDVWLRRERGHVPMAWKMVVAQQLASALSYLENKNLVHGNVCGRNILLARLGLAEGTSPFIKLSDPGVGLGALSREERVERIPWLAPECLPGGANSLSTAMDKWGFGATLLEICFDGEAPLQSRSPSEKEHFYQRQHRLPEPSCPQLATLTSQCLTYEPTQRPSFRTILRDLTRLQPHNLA
- procedureText: TYK2-JH2 Tracer Binding Assay
- measurementSetup: TR-FRET tracer displacement, His-tagged TYK2-JH2 0.200 nM, Tracer 2.00 nM, 30 minutes
pIC50: −log10 of the molar value.
Can you tell me pIC50 for the items I'm about to list?

itemsmiles=CNc1cc(Nc2cccn(-c3ccc(C)cn3)c2=O)nc2c(C(=O)N[C@@H]3CCN(C)C3=O)cnn12 endpointresult="> 9.60"
itemsmiles=CNc1cc(Nc2cccn(-c3cccc(C)n3)c2=O)nc2c(C(=O)N[C@@H]3CCN(C)C3=O)cnn12 endpointresult="> 9.60"

Note: attention shifts to another entry.
Consider the molecule `CNc1cc(Nc2cccn(-c3ccccn3)c2=O)nc2c(C(=O)N[C@@H]3CCN(C)C3=O)cnn12` and give its measured pIC50.
> 9.60
